A collection of compounds and their measured fluorescence lifetime
assay-details: solvent given as SMILES
condition-label: in ClC(Cl)Cl
measurement-type: fluorescence lifetime (ns)

INSERT INTO assay_data (smiles_record, recorded_value) VALUES
  ('CC[N+](CC)=c1ccc2c(-c3ccccc3C(=O)O)c3c(=O)oc4c5c6c(cc4c3oc-2c1)CCCN6CCC5', 2.87),
  ('C(#Cc1ccccc1)C(C#Cc1ccccc1)=Cc1cccc(C=C(C#Cc2ccccc2)C#Cc2ccccc2)c1', 0.3),
  ('Fc1cccc(C2=Cc3ccc4ccccc4[n+]3[B-](F)(F)O2)c1', 1.11),
  ('CCN(CC)c1ccc(C=Cc2nc3nc4ccccc4nc3s2)cc1', 1.31),
  ('CCCCN1C(=O)c2cc(Br)c3c4c(Br)c(Br)c5c6c(cc(Br)c(c7c(Br)c(Br)c(c2c37)C1=O)c64)C(=O)N(CCCC)C5=O', 1.1);

###

assay-details: solvent given as SMILES
condition-label: in CC#N
Note to self: values exactly at 5 ns are YES. So fluorescence lifetime at or above 5 ns is YES, below is NO.

INSERT INTO results (smiles_record, class_label) VALUES
  ('O=[N+]([O-])c1ccc(-c2nc3c(c4c2-c2ccccc2CC4)-c2ccccc2CC3)cc1', 'NO'),
  ('CC1=CC2=Nc3nc(C)[n+](C)cc3CN2C=C1', 'YES'),
  ('COc1ccc(C(=O)NN2C3=C(CC4=C2CCCC4=O)C(=O)CCC3)cc1', 'YES'),
  ('CCOC(=O)CN(CC(=O)OCC)c1ccc(-c2cc(-c3ccccn3)nc(-c3ccccn3)c2)cc1', 'YES');

###

assay-details: solvent given as SMILES
condition-label: in CCOC(C)=O
Outcome label depends on fluorescence lifetime relative to 2 ns: at/above gives yes, below gives no.

INSERT INTO measurements (smiles_record, class_label) VALUES
  ('CCn1c2sccc2c2c3nsnc3c3c4ccsc4n(CC)c3c21', 'yes'),
  ('CC1=[N+]2C(=C(c3cccs3)c3ccc(C)n3[B-]2(F)F)C=C1c1cc2n(c1)[B-](F)(F)[N+]1=CC=CC1=C2c1c(C)cc(C)cc1C', 'no'),
  ('[C-]#[N+]c1ccc(-c2ccc(N)cc2)cc1', 'no'),
  ('CCCCCCCCC1(CCCCCCCC)c2ccccc2-c2ccc(N(c3ccc(-n4c5ccccc5c5ccccc54)cc3)c3ccc4c(c3)C(CCCCCCCC)(CCCCCCCC)c3ccccc3-4)cc21', 'no'),
  ('COc1ccc(C#Cc2c3ccccc3c3n2[B-](F)(F)[N+]2=C(C)C=C(C)C2=C3)cc1', 'yes'),
  ('CCC1=C(C)C2=Cc3cc(I)c(I)n3[B-](F)(F)[N+]2=C1C', 'no'),
  ('CC(C)(C)NC1=C2C=CC=[N+]2[B-](F)(F)n2cccc21', 'no'),
  ('Cc1ccc(C2=C3C=CC(/C=C/c4ccccc4)=[N+]3[B-](F)(F)n3c(/C=C/c4ccccc4)ccc32)cc1', 'yes'),
  ('CCOC(=O)C(C(=O)OCC)C1=[N+]2C(=C(c3ccc(C)cc3)c3ccc(Cl)n3[B-]2(F)F)C=C1', 'yes'),
  ('C[Si](C)(C)c1cc2c(cc3ccc4cccc5ccc2c3c45)[nH]1', 'yes'),
  ('Cc1ccc(C2=C3C=CC(/C=C/c4ccccc4)=[N+]3[B-](F)(F)n3c(Cl)ccc32)cc1', 'yes'),
  ('COc1ccc2c(=O)c3c([nH]c2c1)-c1cc(Cl)ccc1NC3(C)C', 'yes'),
  ('COc1nc(Cl)nc(Nc2ccc3c4c(cccc24)C(=O)c2ccccc2-3)n1', 'yes'),
  ('O=C1c2cc(F)ccc2-c2cnccc21', 'yes'),
  ('CCN(CC)c1ccc2cc(/C(Cl)=C/C=C/C(=C(C#N)C#N)c3ccc(N(c4ccccc4)c4ccccc4)cc3)c(=O)oc2c1', 'yes'),
  ('CC1=CC(C)=[N+]2C1=Cc1c3ccccc3c(C#Cc3ccccc3)n1[B-]2(F)F', 'yes'),
  ('Clc1nc(Nc2ccccc2)nc(Nc2ccc3cc4ccccc4cc3c2)n1', 'yes');
